# reported melting point; entries follow

Would you please look over these solved cases?
[
  {
    "Compound": "CC1(O)CCC2(C)C(CCC3C2CCC2(C)C(c4cc(CO)no4)CCC32)C1 (stereo unspecified)",
    "Endpoint label": "melting point",
    "Recorded value": "192 to 193 °C"
  },
  {
    "Compound": "c1ccc(Oc2ccc(NC3=NN(c4ccccc4)CC3)cc2)cc1",
    "Endpoint label": "melting point",
    "Recorded value": "114 to 116 °C"
  },
  {
    "Compound": "COc1c2nc3ccccc3sc-2c(C)c(=O)c1OC",
    "Endpoint label": "melting point",
    "Recorded value": "138 °C"
  }
]

Give a short answer stating reported melting point for CCCC(=O)C(=CNc1ccc(OCC)c(C)n1)C(=O)OCC .
117 to 120 °C

Give a short answer stating reported melting point for O=C1C(Br)=C(c2ccccc2)C(=O)N1Nc1ccccc1 .
146 to 147 °C

Give a short answer stating reported melting point for CNC(=O)C(C)C(O)(Cn1cncn1)c1ccc(Cl)cc1Cl (stereo unspecified) .
242 to 244 °C

###

# reported melting point; entries follow

[
  {
    "Compound": "COc1ccc2occ(N)c(=O)c2c1",
    "melting point": "98 to 100 °C"
  },
  {
    "Compound": "CCc1noc(C)c1-c1[nH]c2ccccc2c1CC(=O)N(C)C",
    "melting point": "176 to 178 °C"
  },
  {
    "Compound": "CC(=O)C(Cl)=NNc1ccc(Cl)cc1",
    "melting point": "168 to 171 °C"
  },
  {
    "Compound": "CCn1cc(C(=O)NCc2ccc(Cl)cc2)c(=O)c2sccc21",
    "melting point": "189 to 192 °C"
  },
  {
    "Compound": "CC(C)Cn1c(CN2C(=O)c3ccccc3C2=O)c(OCCCC(F)(F)F)c2cc(OCc3ccccc3)ccc2c1=O",
    "melting point": "131 to 132 °C"
  },
  {
    "Compound": "Fc1cc(F)c(-c2c(Cl)nc3ncnn3c2Cl)c(F)c1",
    "melting point": "125 to 126 °C"
  },
  {
    "Compound": "O=C1Cc2c(ccc3ccc(C(O)C(F)(F)F)cc23)O1 (stereo not given)",
    "melting point": "208 to 209 °C"
  },
  {
    "Compound": "COc1ccc(C2(C#Cc3cnc(N)nc3)CCC(O)CC2)cc1OC1CCCC1 (stereo not given)",
    "melting point": "170 to 172 °C"
  },
  {
    "Compound": "CC(C)n1c(NC(=O)c2ccccc2)nc2ccccc2c1=O",
    "melting point": "156 to 158 °C"
  }
]

Give a short answer stating reported melting point for CCOC(=O)CC1(S(N)(=O)=O)c2cc(F)ccc2-c2ccc(F)cc21 .
215 to 217 °C

###

Endpoint label: melting point

Give a short answer stating reported melting point for COC(=O)Nc1c(C/C=C(\C)CCC(=O)O)c(OC)c(C)c2c1C(=O)OC2 .
155 to 158 °C

Give a short answer stating reported melting point for COc1cc(Nc2nc3cccc(-c4ccc(C#N)cc4)c3o2)cc(OC)c1OC .
222 to 223 °C

Give a short answer stating reported melting point for CCOC(=O)CC(=O)c1ccc(Br)c(OC)c1F .
52 to 53 °C

Give a short answer stating reported melting point for CC(C)(C)CCNC(=O)N(CCCl)N=O .
43 to 43.5 °C

Give a short answer stating reported melting point for CCCC1Sc2ccc(F)cc2C=C1c1ccc2c(c1)NC(=O)CO2 (stereo not given) .
161 to 162 °C

Give a short answer stating reported melting point for Cc1ccc(-c2ccc(C(=O)Nc3ccc4cc(CN5C(C)(C)CCCC5(C)C)ccc4c3)cc2)cc1 .
235 to 237 °C

Give a short answer stating reported melting point for C=C(C(=O)NC1CCCCC1)c1ccccc1 .
131 to 133 °C
